assay: A77 1726 concentrations in serum from rats treated with leflunomide; assay type: in vivo, rat; conditions: Non-Diseased Rats, 7 h, leflunomide 10 mg/kg p.o. twice daily
QUANTITY_KIND: A77 1726 concentrations in serum, Mean (µg/mL)
Field: numeric (µg/mL). Do not append units.

query: For CC(O)=C(C#N)C(=O)Nc1ccc(C(F)(F)F)cc1 [A77 1726] , what is its reported A77 1726 concentrations in serum, Mean?
result: 47.9

----------
test: A77 1726 concentrations in serum from rats treated with leflunomide; type: in vivo, rat; conditions: Non-Diseased Rats, 27 h, leflunomide 10 mg/kg p.o. twice daily
QUANTITY_KIND: A77 1726 concentrations in serum, Mean (µg/mL)
Field: numeric (µg/mL). Do not append units.

query: For CC(O)=C(C#N)C(=O)Nc1ccc(C(F)(F)F)cc1 , what is its reported A77 1726 concentrations in serum, Mean?
result: 9.6

----------
test: A77 1726 concentrations in serum from rats treated with leflunomide; type: in vivo, rat; settings: Non-Diseased Rats, 99 h, leflunomide 10 mg/kg p.o. twice daily
QUANTITY_KIND: A77 1726 concentrations in serum, Mean (µg/mL)
Field: numeric (µg/mL). Do not append units.

query: For CC(O)=C(C#N)C(=O)Nc1ccc(C(F)(F)F)cc1 , what is its reported A77 1726 concentrations in serum, Mean?
result: 12.7

----------
assay: A77 1726 concentrations in serum from rats treated with leflunomide; format: in vivo, rat; settings: Non-Diseased Rats, 3 h, leflunomide 10 mg/kg p.o. twice daily
QUANTITY_KIND: A77 1726 concentrations in serum, Mean (µg/mL)
Field: numeric (µg/mL). Do not append units.

query: For CC(O)=C(C#N)C(=O)Nc1ccc(C(F)(F)F)cc1 , what is its reported A77 1726 concentrations in serum, Mean?
result: 30.7

Values were extracted from patent US6545006B1.
